- System: T1, interleukin-23 receptor (IL-23R), Q5VWK5
- T1 chain: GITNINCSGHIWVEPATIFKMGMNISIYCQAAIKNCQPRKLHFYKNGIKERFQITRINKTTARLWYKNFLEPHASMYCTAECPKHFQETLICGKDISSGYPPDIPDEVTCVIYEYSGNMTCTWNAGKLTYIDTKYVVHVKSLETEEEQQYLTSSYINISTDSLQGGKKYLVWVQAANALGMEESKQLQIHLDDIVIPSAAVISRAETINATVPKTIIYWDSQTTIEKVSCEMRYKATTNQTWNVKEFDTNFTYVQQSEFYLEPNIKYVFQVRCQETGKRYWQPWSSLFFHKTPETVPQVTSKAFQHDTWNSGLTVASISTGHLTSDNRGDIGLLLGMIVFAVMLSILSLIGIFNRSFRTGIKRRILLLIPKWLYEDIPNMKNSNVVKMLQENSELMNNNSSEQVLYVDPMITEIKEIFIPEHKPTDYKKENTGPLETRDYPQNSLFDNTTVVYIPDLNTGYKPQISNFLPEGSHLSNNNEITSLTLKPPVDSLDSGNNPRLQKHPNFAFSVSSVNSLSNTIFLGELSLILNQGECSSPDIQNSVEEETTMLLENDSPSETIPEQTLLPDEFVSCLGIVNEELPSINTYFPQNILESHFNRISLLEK
- Measurement Protocol: cell-based or functional assay
Starred links: 1 amine or outer side, 2 acyl side, 3 side chain; linkers in the order of their positions; H or OH if unused. Positions of bridges follow the written chain, without caps; N, C: chain ends. Non-standard residues stand in square brackets, D forms with d. No end group written: not given here. X1 = 3‑(7-(3-acetamidophenyl)-1H-indol-3-yl)‑2‑aminopropanoic acid, CC(=O)Nc1cccc(-c2cccc3c(CC(N[*:1])C(=O)[*:2])c[nH]c23)c1; X7 = 2‑amino‑3‑(5-methylpyridin-3-yl)propanoic acid, Cc1cncc(CC(N[*:1])C(=O)[*:2])c1; Trp(7-(3-AcNH-Ph)) = CC(=O)Nc1cccc(-c2cccc3c(C[C@H](N)C(=O)O)c[nH]c23)c1; 2Nal(6-OH) = N[C@@H](Cc1ccc2cc(O)ccc2c1)C(=O)O; Trp(7-Me) = Cc1cccc2c(C[C@H](N)C(=O)O)c[nH]c12; dLys(Me3) = C[N+](C)(C)CCCC[C@@H](N)C(=O)O; AEF = NCCOc1ccc(C[C@H](N)C(=O)O)cc1; αMeF = C[C@](N)(Cc1ccccc1)C(=O)O; 3Pal = N[C@@H](Cc1cccnc1)C(=O)O; Aad = N[C@@H](CCCC(=O)O)C(=O)O; NMeK = CN[C@@H](CCCCN)C(=O)O; Pen = CC(C)(S)[C@H](N)C(=O)O; lipid = not defined here; Thp = NC1(C(=O)O)CCOCC1; Abu = CC[C@H](N)C(=O)O; PEG = not defined here; Ahp = NCCCCCCC(=O)O; Sar = CNCC(=O)O
Outcome Measure: IL23R Reporter Assay IC50

// below: answered binders
Provide one value: measured IL23R Reporter Assay IC50 of [Pen]NT[X1]K(Ac)[Pen][5‑(4-(2-amino-2-carboxyethyl)phenoxy)‑N,N,N‑trimethylpentan‑1‑aminium][2‑amino‑3‑(6-hydroxynaphthalen-2-yl)propanoic acid][Thp]EN[X7][Sar] (ends and bridges not checked) [SEQ ID NO: 22] < 10 nM

Query IL23R Reporter Assay IC50 for R[Pen]ET[Trp(7-Me)]K(Ac)[Pen][AEF][2Nal(6-OH)][Thp]EN[3Pal][Sar] (disulfide 2-7 (inferred); ends not checked) [SEQ ID NO: 136] < 10 nM

Kindly indicate its recorded IL23R Reporter Assay IC50. Item: R[Pen]NT[Trp(7-Me)]K(Ac)[Pen][AEF][2Nal(6-OH)][Thp]EN[3Pal][NMeK](lipid) (disulfide 2-7 (inferred); not fully specified; ends not checked) [SEQ ID NO: 279] > 100 nM

Quote IL23R Reporter Assay IC50 reported for [Pen]NT[Trp(7-Me)]K(Ac)[Pen][AEF][2Nal(6-OH)][Thp]KN[3Pal][Sar] (disulfide 1-6 (inferred); not fully specified (residue 10); ends not checked; also: K10: lipidated lysine, lipid not given here) [SEQ ID NO: 95] please. < 10 nM

Could you please provide reported IL23R Reporter Assay IC50 for [Pen]NT[Trp(7-Me)]K(Ac)[Pen][2‑amino‑3‑(4-(2-aminoethoxy)phenyl)propanoic acid][2‑amino‑3‑(6-hydroxynaphthalen-2-yl)propanoic acid][Thp]K(Ac)N[3Pal][Sar]K(lipid) (disulfide 1-6 (inferred); ends not checked; also: K14: lipidated lysine) [SEQ ID NO: 275] ? Thanks! > 100 nM

Identify IL23R Reporter Assay IC50 associated with the binder K[Pen]NT[Trp(7-Me)]K[Pen][AEF][2Nal(6-OH)][Thp][Aad]N[3Pal][Sar] (not fully specified (residue 6, bridges); ends and bridges not checked) [SEQ ID NO: 348] < 10 nM

Specify measured IL23R Reporter Assay IC50 for [Abu]NTWQC[AEF][2Nal(6-OH)][Thp]EN[3Pal][Sar] (ends and bridges not checked) [SEQ ID NO: 98] . < 10 nM

Answer with reported IL23R Reporter Assay IC50 of [Pen]ET[Trp(7-Me)]K(PEG)[Pen][AEF][2Nal(6-OH)][Thp]EN[3Pal][Sar] (not fully specified (bridges); ends and bridges not checked; also: PEG chain on Lys unspecified) [SEQ ID NO: 326] < 10 nM

Please report the measured IL23R Reporter Assay IC50 for R[Pen]NT[Trp(7-Me)]K(Ac)[Pen][2‑amino‑3‑(4-(2-aminoethoxy)phenyl)propanoic acid][2‑amino‑3‑(5-methoxynaphthalen-2-yl)propanoic acid][Thp]EN[αMeF] (disulfide 2-7 (inferred); ends not checked) [SEQ ID NO: 437] > 100 nM

Assign IL23R Reporter Assay IC50 to the following record: [Ahp][Pen]NT[Trp(7-Me)]K(Ac)[Pen][AEF][2Nal(6-OH)][Thp]EN[3Pal][Sar] (not fully specified (bridges); ends and bridges not checked) [SEQ ID NO: 417] < 10 nM

Others:
Quote IL23R Reporter Assay IC50 reported for [Pen]NT[Trp(7-(3-AcNH-Ph))]K(Ac)[Pen][AEF][2Nal(6-OH)][Thp]EN[3Pal][Sar] (not fully specified (bridges); ends and bridges not checked) [SEQ ID NO: 69] please. < 10 nM

Provide one value: measured IL23R Reporter Assay IC50 of [dLys(Me3)][Pen]NT[X1]K(Ac)[Pen][5‑(4-(2-amino-2-carboxyethyl)phenoxy)‑N,N,N‑trimethylpentan‑1‑aminium][2‑amino‑3‑(6-hydroxynaphthalen-2-yl)propanoic acid][Thp]EN[X7][Sar] (ends and bridges not checked) [SEQ ID NO: 17] < 10 nM

Retrieve IL23R Reporter Assay IC50 measured for R[Pen]KT[Trp(7-Me)]K(Ac)[Pen][2‑amino‑3‑(4-(2-aminoethoxy)phenyl)propanoic acid][2‑amino‑3‑(6-hydroxynaphthalen-2-yl)propanoic acid][Thp]EN[3Pal][Sar] (disulfide 2-7 (inferred); not fully specified (residue 3); ends not checked; also: K3: lipidated lysine, lipid not given here) [SEQ ID NO: 89] and print it. < 10 nM
